# Test system: BT-549
# assay.name: Growth inhibition of human BT549 cells after 48 hrs by sulforhodamine B assay
# Assay type: functional
# condition.context: BT-549, 48 h, read-out: pTGI (converted)
Examples of molecules with documented TGI follow.

- test.smiles: "COCOc1cc(/C=C/c2cc(CO)c3c(c2)C[C@@H]2C(C)(C)[C@H](O)CC[C@@]2(C)O3)cc(OC)c1C/C=C(\\C)CCC=C(C)C"
  TGI: "17.8 µM"
- test.smiles: "COc1cc(/C=C/c2cc(O)c3c(c2)C[C@@H]2C(C)(C)[C@H](O)CC[C@@]2(C)O3)cc(O)c1C/C=C(\\C)CCC=C(C)C"
  TGI: "12 µM"
- test.smiles: "COc1cc(/C=C/c2ccc3c(c2)C[C@@H]2C(C)(C)[C@H](O)CC[C@@]2(C)O3)cc(O)c1C/C=C(\\C)CCC=C(C)C"
  TGI: "17.8 µM"
- test.smiles: "COc1cc(/C=C/c2cc3c(c(SC)c2)O[C@]2(C)CC[C@@H](O)C(C)(C)[C@H]2C3)cc(O)c1C/C=C(\\C)CCC=C(C)C"
  TGI: "> 100 µM"

###

Examples of compounds with documented LC50 follow.
# Tested on: COLO 205
# assay.name: Growth inhibition of human COLO205 cells after 48 hrs by sulforhodamine B assay
# Format: functional
# condition.context: COLO 205, 48 h

- test.smiles: "COc1cc(/C=C/c2cc(F)c3c(c2)C[C@@H]2C(C)(C)[C@H](O)CC[C@@]2(C)O3)cc(O)c1C/C=C(\\C)CCC=C(C)C"
  LC50 / µM: 55
- test.smiles: "COCOc1cc(/C=C/c2cc(C=O)c3c(c2)C[C@@H]2C(C)(C)[C@H](O)CC[C@@]2(C)O3)cc(OC)c1C/C=C(\\C)CCC=C(C)C"
  LC50 / µM: 51.3
- test.smiles: "COc1cc(/C=C/c2ccc3c(c2)C[C@@H]2C(C)(C)[C@H](O)CC[C@@]2(C)O3)cc(O)c1C/C=C(\\C)CCC=C(C)C"
  LC50 / µM: 49
- test.smiles: "COc1cc(/C=C/c2cc3c(c(SC)c2)O[C@]2(C)CC[C@@H](O)C(C)(C)[C@H]2C3)cc(O)c1C/C=C(\\C)CCC=C(C)C"
  LC50 / µM: 7.08
- test.smiles: "COc1cc(/C=C/c2cc(O)c3c(c2)C[C@@H]2C(C)(C)[C@H](O)CC[C@@]2(C)O3)cc(O)c1C/C=C(\\C)CCC=C(C)C"
  LC50 / µM: 7.24
- test.smiles: "COc1cc(/C=C/c2cc3c(c(OC)c2)O[C@]2(C)CC[C@@H](O)C(C)(C)[C@H]2C3)cc(O)c1C/C=C(\\C)CCC=C(C)C"
  LC50 / µM: 2.4
- test.smiles: "COCOc1cc(/C=C/c2cc(CO)c3c(c2)C[C@@H]2C(C)(C)[C@H](O)CC[C@@]2(C)O3)cc(OC)c1C/C=C(\\C)CCC=C(C)C"
  LC50 / µM: 66.1

###

# System: OVCAR-4
# assay.name: Growth inhibition of human OVCAR4 cells after 48 hrs by sulforhodamine B assay
# Assay type: functional
# condition.context: OVCAR-4, 48 h
Examples of compounds with documented LC50 follow.
metric.name: LC50

- test.smiles: "COCOc1cc(/C=C/c2cc(CO)c3c(c2)C[C@@H]2C(C)(C)[C@H](O)CC[C@@]2(C)O3)cc(OC)c1C/C=C(\\C)CCC=C(C)C"
  target.system: "OVCAR-4"
  result: "> 100 µM"
- test.smiles: "COc1cc(/C=C/c2ccc3c(c2)C[C@@H]2C(C)(C)[C@H](O)CC[C@@]2(C)O3)cc(O)c1C/C=C(\\C)CCC=C(C)C"
  target.system: "OVCAR-4"
  result: "> 100 µM"
- test.smiles: "COc1cc(/C=C/c2cc3c(c(OC)c2)O[C@]2(C)CC[C@@H](O)C(C)(C)[C@H]2C3)cc(O)c1C/C=C(\\C)CCC=C(C)C"
  target.system: "OVCAR-4"
  result: "28.8 µM"
- test.smiles: "COc1cc(/C=C/c2cc(F)c3c(c2)C[C@@H]2C(C)(C)[C@H](O)CC[C@@]2(C)O3)cc(O)c1C/C=C(\\C)CCC=C(C)C"
  target.system: "OVCAR-4"
  result: "> 100 µM"
